SUBJECT OF TEST: Histidine tagged HIF-2α protein containing PAS-B domain (240-350) (Homo sapiens, UniProt Q99814)
Construct: Histidine tagged HIF-2α protein containing PAS-B domain (240-350) was prepared and purified in house; made in house
Sequence (Q99814 240-350): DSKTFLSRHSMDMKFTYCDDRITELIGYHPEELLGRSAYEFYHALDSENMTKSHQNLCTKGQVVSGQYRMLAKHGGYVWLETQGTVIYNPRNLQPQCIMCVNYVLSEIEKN
PROTOCOL DETAILS: HIF-2α Scintillation Proximity Assay (SPA)
Assay type: binding
TEST CONTEXT: 50 nM HIF-2α protein, 25 nM radiolabeled tracer; read-out: HIF-2α Scintillation Proximity Assay
ENDPOINT LABEL: IC50

- MOLECULE: "N#Cc1ccc(Oc2ccc(S(=O)(=O)C(F)(F)F)c3[nH]ncc23)cc1 [Example 19]"
  OBSERVED: "> 10 µM"
- MOLECULE: "N#Cc1cc(F)cc(Oc2ccc(S(=O)(=O)C(F)(F)F)c3[nH]nc(Cl)c23)c1 [Example 61]"
  OBSERVED: "< 1 µM"
- MOLECULE: "CS(=O)(=O)c1ccc(Oc2cc(F)cc(Cl)c2)c2c(Cl)n[nH]c12 [Example 9]"
  OBSERVED: "> 10 µM"

Next:
Q: # input molecule: O=S(=O)(c1ccc(Oc2cccc(F)c2)c2cn[nH]c12)C(F)(F)F [Example 31] ; wanted: its IC50
Result: 1 to 10 µM

* * *

Quick reference: pIC50 of the listed items.
SUBJECT OF TEST: HIF-2α (Homo sapiens)
Construct: endogenous in cells; host or cells: 786-O cells (ATCC CRL-1932) stably carrying the Cignal Lenti HIF Luc Reporter
Sequence (Q99814 whole entry): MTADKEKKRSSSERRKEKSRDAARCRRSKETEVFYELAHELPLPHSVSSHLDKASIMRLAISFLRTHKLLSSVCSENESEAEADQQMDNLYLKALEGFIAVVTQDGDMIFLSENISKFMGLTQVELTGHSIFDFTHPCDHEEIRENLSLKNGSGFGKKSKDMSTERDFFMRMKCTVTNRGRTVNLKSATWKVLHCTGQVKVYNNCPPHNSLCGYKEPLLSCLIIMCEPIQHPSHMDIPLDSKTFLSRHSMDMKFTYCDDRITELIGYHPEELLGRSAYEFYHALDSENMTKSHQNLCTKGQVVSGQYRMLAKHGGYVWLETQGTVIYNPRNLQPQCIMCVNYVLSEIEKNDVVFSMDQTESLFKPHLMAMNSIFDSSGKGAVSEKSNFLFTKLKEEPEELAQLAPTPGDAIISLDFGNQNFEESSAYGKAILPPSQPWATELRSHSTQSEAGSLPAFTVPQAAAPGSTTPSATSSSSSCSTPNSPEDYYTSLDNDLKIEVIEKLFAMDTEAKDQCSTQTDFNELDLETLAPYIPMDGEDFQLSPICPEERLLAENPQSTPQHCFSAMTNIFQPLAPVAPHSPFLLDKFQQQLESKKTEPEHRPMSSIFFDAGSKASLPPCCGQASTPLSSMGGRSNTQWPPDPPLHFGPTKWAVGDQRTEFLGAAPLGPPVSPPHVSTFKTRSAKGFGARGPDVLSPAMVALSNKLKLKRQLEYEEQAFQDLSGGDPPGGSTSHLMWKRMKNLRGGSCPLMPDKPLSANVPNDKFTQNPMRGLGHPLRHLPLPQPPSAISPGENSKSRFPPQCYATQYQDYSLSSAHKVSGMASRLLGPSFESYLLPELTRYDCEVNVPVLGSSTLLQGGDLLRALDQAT
PROTOCOL DETAILS: HIF-2α Luciferase Reporter Assay
Assay type: cell-based
TEST CONTEXT: HIF-Luc-786-0 cells, 20 hours incubation, luciferase activity; read-out: HIF-2α Luciferase Assay
Method: Stable cell lines were generated by transducing 786-O cells (ATCC, CRL-1932) with Cignal Lenti HIF Luc Reporter lentivirus (CLS-007L, Qiagen) according to the manufacturer's guidelines. In brief, 0.3×10^6 786-0 cells were transduced with lentivirus at a Multiplicity of Infection (MOI) of 25 for 24 hours. […]
pIC50: −log10 of the molar value.

Sample answers from the record:
- MOL: "N#Cc1cncc(Oc2ccc(S(=O)(=O)C(F)(F)F)c3[nH]ncc23)c1"
  pIC50: "5.00 to 6.00"
- MOL: "CS(=O)(=O)c1ccc(Oc2cc(F)cc(C#N)c2)c2c(Cl)n[nH]c12"
  pIC50: "5.00 to 6.00"
- MOL: "N#Cc1cc(Oc2ccc(S(=O)(=O)C(F)(F)F)c3[nH]ncc23)cc(C(F)(F)F)c1"
  pIC50: "5.00 to 6.00"
- MOL: "CS(=O)(=O)c1ccc(Oc2cc(F)cc(Cl)c2)c2cn[nH]c12"
  pIC50: "< 5.00"
- MOL: "N#Cc1cccc(Oc2ccc(S(=O)(=O)C(F)(F)F)c3[nH]ncc23)c1"
  pIC50: "5.00 to 6.00"
- MOL: "N#Cc1cc(Oc2ccc(S(=O)(=O)C(F)(F)F)c3[nH]ncc23)ccc1Cl"
  pIC50: "< 5.00"

Q: # input compound: O=S(=O)(c1ccc(NCc2ccccc2)c2cn[nH]c12)C(F)(F)F ; wanted: its pIC50
Result: < 5.00

Q: For N#Cc1cc(Nc2ccc(S(=O)(=O)C(F)(F)F)c3[nH]ncc23)ccc1F then?
Result: < 5.00

Q: For N#Cc1cc(F)cc(Oc2ccc(S(=O)(=O)C(F)(F)F)c3[nH]nc(Cl)c23)c1 then?
Result: < 5.00

Q: For O=S(=O)(c1ccc(N2CCCc3cc(F)cc(F)c32)c2cn[nH]c12)C(F)(F)F then?
Result: < 5.00

Q: For N#Cc1cc(F)cc(Nc2ccc(S(=O)(=O)C(F)(F)F)c3[nH]ncc23)c1 then?
Result: 5.00 to 6.00

Q: For CS(=O)(=O)c1ccc(Oc2ccc(F)cc2F)c2cn[nH]c12 then?
Result: < 5.00
